Test system: SHEE cells (human immortalized esophageal epithelial cell line)
Assay: Toxicity to SHEE, MTT assay
Type: cell-based
Details: 48 h, read-out: IC50 SHEE
Experimental: Toxicity to SHEE was evaluated by using the MTT assay. The SHEE cells were seeded in 96-well plates with densities of 2,200–2,500 cells/well in 100 μl. One day after seeding, the concentration of the test compounds being between 0 and 50 μM, 0.1% DMSO were added to the cells as control. Approximately 2,200–2,500 transfected cells in 100 μl were incubated in quintuplicate in 96-well plates. […] The absorbance at 490 nm was measured using a microplate reader (Thermo).
pIC50: −log10 of the molar value.
Result Type: pIC50

>>> print(df.to_string())
                                   compound  result_type  endpoint_value
0  C#Cc1cccc(Nc2ncnc3cc(OCCOC)c(OCCOC)cc23)c1 [Erlotinib, reference compound]        pIC50            4.68

---

// values below are reported melting point
Result Type: melting point

In [3]: df
Out[3]:
                               entry_smiles    result_type  endpoint_value
0  COCCOc1cc2ncnc(Nc3cccc(-c4cn(Cc5ccccc5)nn4)c3)c2cc1OCCOC  melting point     89 to 92 °C
1  COCCOc1cc2ncnc(Nc3cccc(-c4cn(CCc5ccccc5)nn4)c3)c2cc1OCCOC  melting point   109 to 112 °C
2  COCCOc1cc2ncnc(Nc3cccc(-c4cn(Cc5ccccc5Br)nn4)c3)c2cc1OCCOC  melting point     94 to 97 °C
3  COCCOc1cc2ncnc(Nc3cccc(-c4cn(Cc5ccccc5I)nn4)c3)c2cc1OCCOC  melting point     93 to 96 °C
